Tested on: LOC_OS07G07230-cb001
Experiment: thermal shift delta Tm vs DMSO control; higher = stronger stabilization (binding);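 note: purified Escherichia coli-expressed rice kinase domain construct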
Conditions: 12.5 µM; protein concentration 2 µM
Counter-ions that a name gives are not always drawn.
thermal shift delta Tm for assorted molecules
# output: bare number, implied unit °C

Example entries and their recorded answers appear below.
Entry "CCN1CCN(Cc2ccc(Nc3ncc(F)c(-c4cc(F)c5nc(C)n(C(C)C)c5c4)n3)nc2)CC1" ; thermal shift delta Tm = 0.37

// field: thermal shift delta Tm; key: "Nc1ncnc2c1c(-c1cnc3[nH]ccc3c1)nn2C1CCCC1" ; value = 0.21

Lab book: thermal shift delta Tm of "Fc1ccc2[nH]ccc2c1-c1nc(N2CCOCC2)c2sc(CN3CCN(CC4CC4)CC3)cc2n1" noted as 0.95

The value of thermal shift delta Tm measured for the molecule COc1cc(Nc2ncc(F)c(Nc3ccc4c(n3)NC(=O)C(C)(C)O4)n2)cc(OC)c1OC [R406 (free base)] turned out to be -0.18

For record "Cc1ccc(Nc2cc(N[C@@H]3CCCC[C@@H]3N)nnc2C(N)=O)nc1C" the listed thermal shift delta Tm is 0.12

Next:
Field thermal shift delta Tm (entry "Cc1c(C(=O)N2CCOc3ccc(-c4ccc(N)nc4)cc3C2)ccc(S(C)(=O)=O)c1F" ) reads 0.23

Entry "N#Cc1c(O)c2c(-c3ccc(-c4ccccc4O)cc3)csc2[nH]c1=O" — recorded thermal shift delta Tm = 0.19

Reported thermal shift delta Tm of "Cc1nc(Nc2cnn(C3CCNCC3)c2)nc2c1N(C)C(=O)c1cc3ccccc3cc1N2C" : 0.2

Data point: CC#CC(=O)N1CCC[C@H]1c1nc(-c2ccc(C(=O)Nc3ccccn3)cc2)c2c(N)nccn12 [Acalabrutinib (ACP-196)] ; thermal shift delta Tm = 0.32

So, "C=CC(=O)N1CCC[C@@H](n2nc(-c3ccc(Oc4ccccc4)cc3)c3c(N)ncnc32)C1" ? Its thermal shift delta Tm was 0.64

CCCCCCCCc1ccc(CCC(N)(CO)CO)cc1 [Fingolimod (FTY720) HCl] yielded thermal shift delta Tm of -1.48

thermal shift delta Tm reading for "Cc1ncc(CCCN(C)C)cc1Nc1ncc2c(n1)-c1ccc(C(F)(F)F)cc1NC(=S)C2" : 0.32

Form field thermal shift delta Tm, entry "CCS(=O)(=O)N1CC(CC#N)(n2cc(-c3ncnc4[nH]ccc34)cn2)C1" : 0.82

Short answer for "CNC(=O)Nc1ccc(-c2nc(N3CC4CCC(C3)O4)c3cnn(C4CCC5(CC4)OCCO5)c3n2)cc1" : thermal shift delta Tm was 0.15

---

Tested on: LOC_OS01G13800-cb001
Test: thermal shift delta Tm vs DMSO control; higher = stronger stabilization (binding)
Conditions: 12.5 µM; protein concentration 2 µM
Assay Readout: thermal shift delta Tm

Recorded results for 2 molecules are shown here.
Notebook: "CCS(=O)(=O)c1cccc(-c2cc(C(=O)NC3CCN(C)CC3)c(C)c3[nH]c4ncc(C)cc4c23)c1" , thermal shift delta Tm read as -0.51 °C

Summary for this molecule, "CS(=O)(=O)CCNCc1ccc(-c2ccc3ncnc(Nc4ccc(OCc5cccc(F)c5)c(Cl)c4)c3c2)o1" : thermal shift delta Tm is 0.49 °C

More entries:
# thermal shift delta Tm (molecule: "COc1ccc(/C=C/C(=O)C2(C(=O)/C=C/c3ccc(OC)c(OC)c3)CCCCC2)cc1OC" ) is 0.16 °C

---

System: LOC_OS01G63280-cb003
Assay: thermal shift delta Tm vs DMSO control; higher = stronger stabilization (binding)
Conditions: 12.5 µM; protein concentration 2 µM
Assay Readout: thermal shift delta Tm (°C)
The response must be a number in °C with no trailing unit.

Notebook: "CCn1c(C(=O)N(C2CC2)C2CC2)cc2c3c(ncn3C)c(Nc3cc(C)n(C)n3)nc21" , thermal shift delta Tm read as 0.73

---
The reported value for "Cc1cc2c(F)c(Oc3ncnn4cc(OC[C@@H](C)O)c(C)c34)ccc2[nH]1" in terms of thermal shift delta Tm is 1.5

---

Test system: LOC_OS05G07850-cb002
Assay: thermal shift delta Tm vs DMSO control; higher = stronger stabilization (binding)
Details: 12.5 µM; protein concentration 2 µM
Counter-ions that a name gives are not always drawn.
# key: entry, value: thermal shift delta Tm
Numeric only. Scale: °C

The compound listed as "CC[C@@H](N)CNc1ccnc(-c2cc(-c3cnn(C)c3)ccc2O)n1" has a reported thermal shift delta Tm of 8.12

# thermal shift delta Tm of "N#CCNC(=O)c1ccc(-c2ccnc(Nc3ccc(N4CCOCC4)cc3)n2)cc1" = 11.6

The recorded thermal shift delta Tm for entry "N#CC[C@H](C1CCCC1)n1cc(-c2ncnc3[nH]ccc23)cn1" equals 6.97

Further cases:
Consider "Nc1ncnc2c1c(-c1cnc3[nH]ccc3c1)nn2C1CCCC1" . Its measured thermal shift delta Tm is 4.79

Entry "CC(C)(C)Cn1c(N)nc2ccc(-c3[nH]c(C(C)(C)C)nc3-c3ccc(F)cc3)nc21" — recorded thermal shift delta Tm = 1.45

What the record says about "NC1(c2ccc(-c3nc4ccn5c(=O)[nH]nc5c4cc3-c3ccccc3)cc2)CCC1" : thermal shift delta Tm is 1.31

The compound "CC(C)n1ncnc1-c1cn2c(n1)-c1ccc(O[C@@H](C)C(N)=O)cc1OCC2" showed thermal shift delta Tm equal to -0.96

Input Nc1ncccc1-c1nc2ccc(-c3ccccc3)nc2n1-c1ccc(C2(N)CCC2)cc1 [Miransertib (ARQ 092) HCl] . Output thermal shift delta Tm: 1.08

"O=C(Cc1ccc(-c2ccc(OCCN3CCOCC3)cc2)cn1)NCc1ccccc1" yielded thermal shift delta Tm of 0.35

Kindly note the recorded thermal shift delta Tm for "Cc1ccc(-n2nc(C(C)(C)C)cc2NC(=O)Nc2ccc(OCCN3CCOCC3)c3ccccc23)cc1" , which is 1.84

---

Collected thermal shift delta Tm values appear next to each entry.
Tested on: LOC_OS02G07810-cb001
Assay: thermal shift delta Tm vs DMSO control; higher = stronger stabilization (binding)
Conditions: 12.5 µM; protein concentration 2 µM
// return numeric value only (unit: °C, not printed)

Consider N#CC1(c2ccc(NC(=O)c3cccnc3NCc3ccncc3)cc2)CCCC1 [Apatinib] . Its measured thermal shift delta Tm is 1.02

// thermal shift delta Tm lookup, compound = COc1cc2nccc(Oc3ccc(NC(=O)C4(C(=O)Nc5ccc(F)cc5)CC4)cc3)c2cc1OC [Cabozantinib malate (XL184)] , result: 1.09

The compound listed as "Cn1c2ccccc2c2c3c(c4c5ccccc5n(CCC#N)c4c21)CNC3=O" shows thermal shift delta Tm equal to 2.07

Reported thermal shift delta Tm of Cc1ccc(-n2nc(C(C)(C)C)cc2NC(=O)Nc2ccc(OCCN3CCOCC3)c3ccccc23)cc1 [Doramapimod (BIRB 796)] : 0.89

Further cases:
The compound identified as "O=C(Nc1ccc(OC(F)(F)F)cc1)c1sccc1NCc1ccnc2ccccc12" registered its thermal shift delta Tm at 1.03

Documented thermal shift delta Tm of CCN(CC)CCCC(C)Nc1nc(C)cc(Nc2ccc3nc(C)cc(N)c3c2)n1 (stereo unspecified) : -0.06

---

Test system: LOC_OS05G28520-cb001
Assay: thermal shift delta Tm vs DMSO control; higher = stronger stabilization (binding)
Details: 12.5 µM; protein concentration 2 µM
Binning scheme for thermal shift delta Tm: bin 1 (below 0.4 °C), bin 2 (0.4 °C to below 0.8 °C), bin 3 (0.8 °C or more)

Solved entries (count: 2):
Prompt line: For this molecule, which bin applies? "CCn1c(=O)c(-c2ccc(-c3cncs3)cc2Cl)cc2cnc(Nc3ccc(N4CCN(C)CC4)cc3)nc21"
Response line: bin 1

Prompt line: Assign a bin to "CCCCCCCCCCCCCCCCn1cc[n+](Cc2ccccc2)c1C"
Response line: bin 1

New cases:
Prompt line: The entry to classify is COc1cc2nccc(Oc3ccc(NC(=O)NC4CC4)c(Cl)c3)c2cc1C(N)=O [Lenvatinib (E7080)] ; which class holds it?
Response line: bin 1

Prompt line: Would you mind sorting "OCCn1cc(-c2ccc3c(c2)CC/C3=N\O)c(-c2ccncc2)n1" into the appropriate category?
Response line: bin 3

Prompt line: Lab note: which band did "C[C@H](Nc1ncnc2[nH]cnc12)c1cc2ccc(F)cc2nc1-c1ccccn1" land in?
Response line: bin 2

Prompt line: Hi there! Could you help me figure out the category for CC(C)CCN1c2nc(Nc3cc(F)c(O)c(F)c3)ncc2N(C)C(=O)C1C (stereo not drawn) please?
Response line: bin 3

Prompt line: Sort into band: "COCC(=O)NC/C=C/c1ccc2ncnc(Nc3ccc(Oc4ccc(C)nc4)c(C)c3)c2c1"
Response line: bin 1

---

Tested on: LOC_OS01G14860-cb001
Assay: thermal shift delta Tm vs DMSO control; higher = stronger stabilization (binding)
Details: 12.5 µM; protein concentration 2 µM
Listed below: thermal shift delta Tm values for each entry.
Write the quantity with the unit trailing the number.

// below: answered compounds
# thermal shift delta Tm of "O=C(Nc1cccc(C(F)(F)F)c1)c1cccc2cc(Oc3cc(CO)ncn3)ccc12" = 0.71 °C

Record summary for "CNC(=O)c1ccccc1Nc1cc(Nc2ccc(N3CCOCC3)cc2OC)ncc1C(F)(F)F" : reported thermal shift delta Tm = 1.05 °C

response.value for "Cc1ccc2nc(NCCN)c3ncc(C)n3c2c1" (field: thermal shift delta Tm) = 0.19 °C

The compound listed as "CN1CCC(COc2cnc(-c3cccc(Cn4nc(-c5cccc(C#N)c5)ccc4=O)c3)nc2)CC1" shows thermal shift delta Tm equal to 0.03 °C

Value of measured thermal shift delta Tm for the entry COc1cc(Nc2c(C#N)cnc3cc(OCCCN4CCN(C)CC4)c(OC)cc23)c(Cl)cc1Cl [Bosutinib (SKI-606)] : 0.06 °C

---
Note to self: thermal shift delta Tm recorded for "Nc1ncc(-c2ccnc(Nc3ccncc3)n2)c(CC2CC2)n1" was 2.55 °C

"CC(C)NC(=O)COc1cccc(-c2nc(Nc3ccc4[nH]ncc4c3)c3ccccc3n2)c1" yielded thermal shift delta Tm of 1.95 °C

In plain terms, CCN(CC)CCNC(=O)c1c(C)[nH]c(/C=C2\C(=O)Nc3ccc(F)cc32)c1C [Sunitinib Malate] has a documented thermal shift delta Tm of 1.29 °C
